- System: Salmonella enteritidis
- experimentalProtocol: Antibacterial activity against Salmonella enteritidis by microdilution technique
- Format: functional, Salmonella enterica subsp. enterica serovar Enteritidis
- conditionSummary: Salmonella enterica
testReadout: MIC (µg/mL)
// units = µg/mL; emit number, no label

Consider the compound shown here: C=C(CCO)C(=O)O[C@H]1C/C(C)=C/CC/C(CO)=C/[C@H]2OC(=O)[C@H](C)[C@H]12 What is its recorded MIC?
0.3

Consider the compound shown here: C=C(CCO)C(=O)O[C@H]1C[C@]2(C)C([C@H](C=O)CC[C@H]2O)[C@H]2OC(=O)[C@H](C)[C@H]12 (stereo partly drawn) What is its recorded MIC?
0.4

Consider the compound shown here: C=C(C(=O)O[C@H]1C/C(C)=C/CC/C(CO)=C/[C@H]2OC(=O)[C@H](C)[C@H]12)C(O)CO (stereo partly drawn) What is its recorded MIC?
0.3
